B1: ZBTB22 (parent)
chain: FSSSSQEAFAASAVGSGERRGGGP

variants of: B1; test: protein stability index of a GFP-peptide fusion (GPS, HEK-293T) (PSI 1-6); higher = more stable; conditions: c terminus: a fixed tail appended;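 note: lentivirally expressed fusions sorted by FACS into six bins by GFP to DsRed ratio, PSI derived from sequencing read proportions per bin multiplied by bin number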
So basically: protein stability index at 3 or higher? That is Met. Lower than 3? That is Not met.

The examples below pair each entry with its known result.
seq_string="FSSSSQEAFAASAVGSGERIGGGP [R20I]" group_label=Met
seq_string="FSSRSQEAFAASAVGSGERRGGGP [S4R]" group_label="Not met"
seq_string="FSSSSQEAFAASAVISGERRGGGP [G15I]" group_label=Met
seq_string="FSSSSQEAFAASAVGSGERRGYGP [G22Y]" group_label="Not met"

input: Reported protein stability index at or above 3? FSSSSQEAFAAQAVGSGERRGGGP [S12Q]
output: Met

input: Is protein stability index for FSSSSQEAFAASAVGSGERRGGGL [P24L] at or above 3?
output: Met
